Assayed system: UniProt P69332
Run description: cell-based
Set-up: species or system HCMV (strain AD169)
pIC50: −log10 of the molar value.
Measured attribute: pIC50

INSERT INTO assay_data (compound_structure, val) VALUES
  ('N#CC(CCCN1CCC(O)(c2ccc(Cl)cc2)CC1)(c1ccccc1)c1ccccc1', 6.11);

* * *

Assayed system: UniProt P69332
Run description: cell-based
Parameters: species or system HCMV
Recorded conditions: at 10^-5
Quick rule for you: % 10^-5 remaining activity on US28 in inositol phosphate assay under 80% gets true (1), anything else gets false (0).

INSERT INTO results (molecule, assayed_system, class) VALUES
  ('N#CC1(CCCN2CCC(O)(c3ccc(Cl)cc3)CC2)c2ccccc2CCc2ccccc21 [VUF5713]', 'UniProt P69332', 'true (1)'),
  ('CC(C)(C)c1ccc(C(O)CCCN2CCC(C(O)(c3ccccc3)c3ccccc3)CC2)cc1 (centres unmarked) [Terfenadine, reference compound]', 'UniProt P69332', 'true (1)'),
  ('N#CC(CCCN1CCC(C(=O)O)CC1)(c1ccccc1)c1ccccc1 [VUF5718]', 'UniProt P69332', 'false (0)'),
  ('N#CC(CCCN1CC=C(c2ccc(Cl)cc2)CC1)(c1ccccc1)c1ccccc1 [VUF5664]', 'UniProt P69332', 'false (0)'),
  ('NCC(CCCN1CCC(O)(c2ccc(Cl)cc2)CC1)(c1ccccc1)c1ccccc1 [VUF5728]', 'UniProt P69332', 'true (1)'),
  ('OC1(c2ccc(Cl)cc2)CCN(CCCC(c2ccccc2)c2ccccc2)CC1 [VUF5667]', 'UniProt P69332', 'true (1)'),
  ('N#CC(CCCN1CCN(c2ccc(Cl)cc2)CC1)(c1ccccc1)c1ccccc1 [VUF5658]', 'UniProt P69332', 'false (0)'),
  ('O=C(NCC(CCCN1CCC(O)(c2ccc(Cl)cc2)CC1)(c1ccccc1)c1ccccc1)NC1CCNCC1 [VUF5717]', 'UniProt P69332', 'false (0)');

* * *

Assayed system: US28 (Human cytomegalovirus)
Run description: biochemical
Assay type: binding, HCMV
pIC50: −log10 of the molar value.
Measured attribute: pIC50

INSERT INTO assay_data (compound_structure, val) VALUES
  ('OC1(c2ccc(Cl)cc2)CCN(CCCC(c2ccccc2)c2ccccc2)CC1', 5.23),
  ('N#CC(CCCN1CCC(O)(c2ccc(Cl)cc2)CC1)(c1ccccc1)c1ccccc1', 5.08),
  ('N#CC(CCCN1CCC(O)(c2ccccc2)CC1)(c1ccccc1)c1ccccc1', 4.46),
  ('N#CC1(CCCN2CCC(O)(c3ccc(Cl)cc3)CC2)c2ccccc2CCc2ccccc21', 5.02);

* * *

Assayed system: Δ(2-22)-US28 (Human cytomegalovirus, UniProt P69332)
Sequence (P69332 22-354, looked up, stated change not applied): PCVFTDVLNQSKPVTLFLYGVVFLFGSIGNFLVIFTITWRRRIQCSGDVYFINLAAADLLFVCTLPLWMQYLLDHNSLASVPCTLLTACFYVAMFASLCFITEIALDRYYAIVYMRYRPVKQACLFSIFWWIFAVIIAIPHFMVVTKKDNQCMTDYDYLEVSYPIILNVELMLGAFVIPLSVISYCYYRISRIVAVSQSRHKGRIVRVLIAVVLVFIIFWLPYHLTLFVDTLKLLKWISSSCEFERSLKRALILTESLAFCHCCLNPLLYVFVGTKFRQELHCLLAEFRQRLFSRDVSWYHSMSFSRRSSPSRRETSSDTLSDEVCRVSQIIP
Run description: cell-based
Design: species or system HCMV
pIC50: −log10 of the molar value.
Measured attribute: pIC50

INSERT INTO results (compound_structure, measured_attribute, val) VALUES
  ('N#CC(CCCN1CCC(O)(c2ccc(Cl)cc2)CC1)(c1ccccc1)c1ccccc1', 'pIC50', 5.35);

* * *

Assayed system: US28 (Human cytomegalovirus, UniProt P69332)
Sequence (P69332 whole entry): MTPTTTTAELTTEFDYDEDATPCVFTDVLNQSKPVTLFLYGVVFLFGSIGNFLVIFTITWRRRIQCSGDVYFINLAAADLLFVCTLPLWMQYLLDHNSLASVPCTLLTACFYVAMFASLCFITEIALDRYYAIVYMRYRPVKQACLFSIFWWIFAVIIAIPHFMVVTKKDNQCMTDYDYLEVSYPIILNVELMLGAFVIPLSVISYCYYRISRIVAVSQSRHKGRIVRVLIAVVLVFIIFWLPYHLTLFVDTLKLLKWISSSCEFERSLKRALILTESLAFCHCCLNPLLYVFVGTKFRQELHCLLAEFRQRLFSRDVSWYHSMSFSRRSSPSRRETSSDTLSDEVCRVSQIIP
Run description: cell-based
Design: species or system HCMV
Recorded conditions: pIC50 of US28 mediated InsP production, COS-7 cells, WT-US28
Measured attribute: IC50 (µM)

INSERT INTO results (compound_structure, assayed_system, measured_attribute, val) VALUES
  ('N#CC(CCCN1CCC(O)(c2ccc(Cl)cc2)CC1)(c1ccccc1)c1ccccc1', 'US28 (Human cytomegalovirus, UniProt P69332)', 'IC50', 3.47);

* * *

Assayed system: UniProt P69332
Run description: biochemical
Type: binding, HCMV (strain AD169)
Recorded conditions: pIC50 of [125I]-RANTES displacement, AD169-infected HFFs
Measured attribute: IC50 (nM)

INSERT INTO measurements (molecule, val) VALUES
  ('N#CC(CCCN1CCC(O)(c2ccc(Cl)cc2)CC1)(c1ccccc1)c1ccccc1 [Formula X]', 708);

* * *

Assayed system: US28 (Human cytomegalovirus)
Run description: cell-based
Set-up: species or system HCMV
Recorded conditions: at 10^-5
Listing of entries alongside the reported % 10^-5 remaining activity on US28 in inositol phosphate assay.
Measured attribute: % 10^-5 remaining activity on US28 in inositol phosphate assay (%)

INSERT INTO assay_data (molecule, assayed_system, scale_unit, val) VALUES
  ('O=C(CCCN1CCC(O)(c2ccc(Cl)cc2)CC1)c1ccccc1 [VUF5666]', 'US28 (Human cytomegalovirus)', '%', 70),
  ('OC1(c2ccc(Cl)cc2)CCN(CCCOc2ccccc2)CC1 [VUF5714]', 'US28 (Human cytomegalovirus)', '%', 77),
  ('N#CC(CCCN1CCC(O)(c2ccccc2)CC1)(c1ccccc1)c1ccccc1 [VUF5660]', 'US28 (Human cytomegalovirus)', '%', 60),
  ('N#CC(CCCN1CCC(O)(c2ccc(Cl)cc2)CC1)(c1ccccc1)c1ccccc1 [Formula X]', 'US28 (Human cytomegalovirus)', '%', 10),
  ('N#CC(CCCN1CCC(C(N)=O)CC1)(c1ccccc1)c1ccccc1 [VUF5720]', 'US28 (Human cytomegalovirus)', '%', 87),
  ('N#CC(CCCN1CCC(c2ccc(Cl)cc2)CC1)(c1ccccc1)c1ccccc1 [VUF5662]', 'US28 (Human cytomegalovirus)', '%', 60),
  ('N#CC1(CCCN2CCC(O)(c3ccc(Cl)cc3)CC2)c2ccccc2CSc2ccccc21 (stereo not shown) [VUF5727]', 'US28 (Human cytomegalovirus)', '%', 14);

Where do the numbers come from? From patent EP1393728A1.
